These measurements were taken from paper PMC3083445.

- protocol: Stability of SFTI variants in culture with prostate cancer cells
- Assay type: in vitro ADME
- study.conditions: human; 1 µM inhibitor in serum-containing media on LNCaP, 22Rv1 and PC3 monolayers; residual KLK4 inhibition; read-out: half-life in cell culture
Where a SMILES comes first, the peptide text is derived from it. Bridges are numbered along the chain shown (N, C = ends).
recorded.metric: half-life at 1 µM

- compound: "CC[C@H](C)[C@@H]1NC(=O)[C@@H]2CCCN2C(=O)[C@@H]2CCCN2C(=O)[C@H]([C@@H](C)CC)NC(=O)[C@H](CO)NC(=O)[C@H](CCCNC(=N)N)NC(=O)[C@H](CCC(N)=O)NC(=O)[C@@H]2CSSC[C@H](NC1=O)C(=O)N[C@@H](Cc1ccccc1)C(=O)N1CCC[C@H]1C(=O)N[C@@H](CC(N)=O)C(=O)NCC(=O)N[C@@H](Cc1ccccc1)C(=O)N2 [SFTI-FCQR Asn14] (cyclo(GFCQRSIPPICFPN); disulfide 3-11)"
  recorded.metric: "half-life at 1 µM"
  reported: "55 to 70 h"

====

- protocol: Bioavailability / serum levels in mice by LC-MS
- Format: in vivo
- study.conditions: BALB/cFoxn1/Arc, mouse, serum, IV and IP, 3 mg/kg, irrespective of delivery route, read-out: residual inhibitor concentration in serum after 4 hours
Where a SMILES comes first, the peptide text is derived from it. Bridges are numbered along the chain shown (N, C = ends).

- molecule: "CC[C@H](C)[C@@H]1NC(=O)[C@@H]2CCCN2C(=O)[C@@H]2CCCN2C(=O)[C@H]([C@@H](C)CC)NC(=O)[C@H](CO)NC(=O)[C@H](CCCNC(=N)N)NC(=O)[C@H](CCC(N)=O)NC(=O)[C@@H]2CSSC[C@H](NC1=O)C(=O)N[C@@H](Cc1ccccc1)C(=O)N1CCC[C@H]1C(=O)N[C@@H](CC(N)=O)C(=O)NCC(=O)N[C@@H](Cc1ccccc1)C(=O)N2 [SFTI-FCQR Asn14] (cyclo(GFCQRSIPPICFPN); disulfide 3-11)"
  level at time molar at 4 h / nM: 10
